Molecular target: Estrogen receptor (Homo sapiens, UniProt P03372)
Assay: ChEBML_1664056
MEASUREMENT_KIND: pKi
Please treat pKi as minus the base-10 logarithm of the molar concentration.

Determine from records and report pKi for `CCCCNC(=O)/C=C/c1ccc(C(=C2C3CC4CC(C3)CC2C4)c2ccc(O)cc2)cc1`
9.15

###

Molecular target: UniProt P03372
Sequence (P03372 whole entry): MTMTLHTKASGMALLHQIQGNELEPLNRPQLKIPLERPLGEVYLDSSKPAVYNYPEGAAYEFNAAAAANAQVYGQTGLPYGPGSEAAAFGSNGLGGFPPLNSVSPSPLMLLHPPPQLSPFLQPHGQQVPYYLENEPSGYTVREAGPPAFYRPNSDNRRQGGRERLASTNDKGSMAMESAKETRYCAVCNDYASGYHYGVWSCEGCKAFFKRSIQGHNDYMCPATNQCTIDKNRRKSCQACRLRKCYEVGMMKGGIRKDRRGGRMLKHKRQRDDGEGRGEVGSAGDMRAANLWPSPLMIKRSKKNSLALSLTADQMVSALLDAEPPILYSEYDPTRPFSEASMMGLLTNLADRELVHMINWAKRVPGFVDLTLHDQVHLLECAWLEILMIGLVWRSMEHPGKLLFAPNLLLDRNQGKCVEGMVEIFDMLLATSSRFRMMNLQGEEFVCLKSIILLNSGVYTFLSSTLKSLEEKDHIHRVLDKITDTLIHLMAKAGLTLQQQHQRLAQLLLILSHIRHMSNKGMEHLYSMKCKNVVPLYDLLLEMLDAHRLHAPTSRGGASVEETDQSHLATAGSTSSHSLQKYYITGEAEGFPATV
Assay: Displacement of [3H]estradiol from full-length human ERalpha receptor by scintillation counting
Task for the reader: assign each of the following molecules its reported pKi.
// pKi: -log10(molar conc.)

Give a short answer stating reported pKi for `O=C(/C=C/c1ccc(C(=C2C3CC4CC(C3)CC2C4)c2ccc(O)cc2)cc1)OCCCO` .
9.15

Give me measured pKi, please, for this molecule: `COC(=O)/C=C/c1ccc(C(=C2C3CC4CC(C3)CC2C4)c2ccc(O)cc2)cc1`
9.37

Report pKi, nothing else, for this molecule: `CCCCN(C)C(=O)/C=C/c1ccc(C(=C2C3CC4CC(C3)CC2C4)c2ccc(O)cc2)cc1`
9.15

Provide measured pKi value, entry: `O=C(/C=C/c1ccc(C(=C2C3CC4CC(C3)CC2C4)c2ccc(O)cc2)cc1)NCCCO`
9.37

Supply recorded pKi for `NCCCNC(=O)/C=C/c1ccc(C(=C2C3CC4CC(C3)CC2C4)c2ccc(O)cc2)cc1` here.
9.43

Please indicate pKi recorded for `O=C(/C=C/c1ccc(C(=C2C3CC4CC(C3)CC2C4)c2ccc(O)cc2)cc1)OCCO`
9.43
